System: YJR148W
Experiment: TOR pathway GFP reporter clone modulation in yeast – S. cerevisiae, GFP-tagged clone panel, flow cytometry (AID 504473);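 further: median GFP fluorescence of the cells measured by high-throughput flow cytometry; test concentration not given here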
Details: S. cerevisiae GFP-tagged strains, 3 h
Active and inactive are the calls of the source.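 How the source made its calls: active means GFP ratio to DMSO above 1.5 or below 0.66; inactive means the rest.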
Pick one: active, inactive

// below: answered compounds
| RECORD_SMILES | ASSIGNED_CATEGORY |
| --- | --- |
| CO[C@H]1C[C@@H]2CC[C@@H](C)[C@@](O)(O2)C(=O)C(=O)N2CCCC[C@H]2C(=O)O[C@H]([C@H](C)C[C@@H]2CC[C@@H](O)[C@H](OC)C2)CC(=O)[C@H](C)/C=C(\C)[C@@H](O)[C@@H](OC)C(=O)[C@H](C)C[C@H](C)/C=C/C=C/C=C/1C | active |
| CNc1nc(N)c([N+](=O)[O-])c(Nc2cccc(F)c2)n1 | active |
| CNc1nc(N)c([N+](=O)[O-])c(Nc2ccccc2OC)n1 | inactive |
| CNc1nc(N)c([N+](=O)[O-])c(Nc2cccc(Cl)c2)n1 | active |

Ask: # outcome recorded in this test, key = `CNc1nc(N)c([N+](=O)[O-])c(Nc2ccccc2)n1`
Reply: inactive

---

System: YER156C
Assay: TOR pathway GFP reporter clone modulation in yeast – S. cerevisiae, GFP-tagged clone panel, flow cytometry (AID 504473)
Settings: S. cerevisiae GFP-tagged strains, 3 h
Active and inactive are the calls of the source.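 Rule for the calls: active = GFP ratio to DMSO above 1.5 or below 0.66; inactive = the rest.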
GFP ratio to DMSO for assorted compounds

| RECORD_SMILES | MEASUREMENT |
| --- | --- |
| CNc1nc(N)c([N+](=O)[O-])c(Nc2ccccc2)n1 | 0.978 (inactive) |
| CNc1nc(N)c([N+](=O)[O-])c(Nc2cccc(Cl)c2)n1 | 1.01 (inactive) |
| CNc1nc(N)c([N+](=O)[O-])c(Nc2ccccc2OC)n1 | 0.819 (inactive) |
| CO[C@H]1C[C@@H]2CC[C@@H](C)[C@@](O)(O2)C(=O)C(=O)N2CCCC[C@H]2C(=O)O[C@H]([C@H](C)C[C@@H]2CC[C@@H](O)[C@H](OC)C2)CC(=O)[C@H](C)/C=C(\C)[C@@H](O)[C@@H](OC)C(=O)[C@H](C)C[C@H](C)/C=C/C=C/C=C/1C | 1.05 (inactive) |

Turning now to a further compound:
Given item `CNc1nc(N)c([N+](=O)[O-])c(Nc2cccc(F)c2)n1` , the value recorded as its GFP ratio to DMSO is 1.08 (inactive)

---

Test system: YDR382W
Test: TOR pathway GFP reporter clone modulation in yeast – S. cerevisiae, GFP-tagged clone panel, flow cytometry (AID 504473)
Conditions: S. cerevisiae GFP-tagged strains, 3 h
Strictly below 1 in GFP ratio to DMSO: label 1. Otherwise: label 0.

| RECORD_SMILES | ASSIGNED_CATEGORY |
| --- | --- |
| CNc1nc(N)c([N+](=O)[O-])c(Nc2ccccc2)n1 | label 0 |
| CNc1nc(N)c([N+](=O)[O-])c(Nc2cccc(Cl)c2)n1 | label 0 |
| CO[C@H]1C[C@@H]2CC[C@@H](C)[C@@](O)(O2)C(=O)C(=O)N2CCCC[C@H]2C(=O)O[C@H]([C@H](C)C[C@@H]2CC[C@@H](O)[C@H](OC)C2)CC(=O)[C@H](C)/C=C(\C)[C@@H](O)[C@@H](OC)C(=O)[C@H](C)C[C@H](C)/C=C/C=C/C=C/1C | label 1 |

Ask: Please let me know if `CNc1nc(N)c([N+](=O)[O-])c(Nc2ccccc2OC)n1` shows GFP ratio to DMSO below 1.
Reply: label 1

---

Tested on: YPR184W
Experiment: TOR pathway GFP reporter clone modulation in yeast – S. cerevisiae, GFP-tagged clone panel, flow cytometry (AID 504473)
Conditions: S. cerevisiae GFP-tagged strains, 3 h
Active and inactive are the calls of the source.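 Rule for the calls: active = GFP ratio to DMSO above 1.5 or below 0.66; inactive = the rest.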
Pick one: active, inactive

// below: answered compounds
| RECORD_SMILES | ASSIGNED_CATEGORY |
| --- | --- |
| CNc1nc(N)c([N+](=O)[O-])c(Nc2cccc(F)c2)n1 | active |
| CNc1nc(N)c([N+](=O)[O-])c(Nc2cccc(Cl)c2)n1 | inactive |
| CNc1nc(N)c([N+](=O)[O-])c(Nc2ccccc2)n1 | inactive |
| CO[C@H]1C[C@@H]2CC[C@@H](C)[C@@](O)(O2)C(=O)C(=O)N2CCCC[C@H]2C(=O)O[C@H]([C@H](C)C[C@@H]2CC[C@@H](O)[C@H](OC)C2)CC(=O)[C@H](C)/C=C(\C)[C@@H](O)[C@@H](OC)C(=O)[C@H](C)C[C@H](C)/C=C/C=C/C=C/1C | active |

Lab note: next compound to report on.
Ask: # outcome recorded in this test, key = `CNc1nc(N)c([N+](=O)[O-])c(Nc2ccccc2OC)n1`
Reply: inactive

---

System: YDR399W
Test: TOR pathway GFP reporter clone modulation in yeast – S. cerevisiae, GFP-tagged clone panel, flow cytometry (AID 504473);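 further: median GFP fluorescence of the cells measured by high-throughput flow cytometry; test concentration not given here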
Settings: S. cerevisiae GFP-tagged strains, 3 h
METRIC: GFP ratio to DMSO
Reply with just the number.

| RECORD_SMILES | SUBJECT_OF_TEST | GFP ratio to DMSO |
| --- | --- | --- |
| CNc1nc(N)c([N+](=O)[O-])c(Nc2cccc(F)c2)n1 | YDR399W | 0.957 |

Given item `CNc1nc(N)c([N+](=O)[O-])c(Nc2ccccc2)n1` , the value recorded as its GFP ratio to DMSO is 0.947

Given item `CNc1nc(N)c([N+](=O)[O-])c(Nc2cccc(Cl)c2)n1` , the value recorded as its GFP ratio to DMSO is 0.977

Given item `CNc1nc(N)c([N+](=O)[O-])c(Nc2ccccc2OC)n1` , the value recorded as its GFP ratio to DMSO is 2.04

Given item `CO[C@H]1C[C@@H]2CC[C@@H](C)[C@@](O)(O2)C(=O)C(=O)N2CCCC[C@H]2C(=O)O[C@H]([C@H](C)C[C@@H]2CC[C@@H](O)[C@H](OC)C2)CC(=O)[C@H](C)/C=C(\C)[C@@H](O)[C@@H](OC)C(=O)[C@H](C)C[C@H](C)/C=C/C=C/C=C/1C` , the value recorded as its GFP ratio to DMSO is 0.946

---

System: YJL056C
Assay: TOR pathway GFP reporter clone modulation in yeast – S. cerevisiae, GFP-tagged clone panel, flow cytometry (AID 504473);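 further: median GFP fluorescence of the cells measured by high-throughput flow cytometry; test concentration not given here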
Conditions: S. cerevisiae GFP-tagged strains, 3 h
Calls of active or inactive are those of the source.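 How the source made its calls: active means GFP ratio to DMSO above 1.5 or below 0.66; inactive means the rest.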
METRIC: GFP ratio to DMSO

Past entries and their recorded results:
| RECORD_SMILES | METRIC | MEASUREMENT |
| --- | --- | --- |
| CNc1nc(N)c([N+](=O)[O-])c(Nc2cccc(Cl)c2)n1 | GFP ratio to DMSO | 0.808 (inactive) |
| CO[C@H]1C[C@@H]2CC[C@@H](C)[C@@](O)(O2)C(=O)C(=O)N2CCCC[C@H]2C(=O)O[C@H]([C@H](C)C[C@@H]2CC[C@@H](O)[C@H](OC)C2)CC(=O)[C@H](C)/C=C(\C)[C@@H](O)[C@@H](OC)C(=O)[C@H](C)C[C@H](C)/C=C/C=C/C=C/1C | GFP ratio to DMSO | 0.954 (inactive) |
| CNc1nc(N)c([N+](=O)[O-])c(Nc2cccc(F)c2)n1 | GFP ratio to DMSO | 0.886 (inactive) |
| CNc1nc(N)c([N+](=O)[O-])c(Nc2ccccc2OC)n1 | GFP ratio to DMSO | 0.664 (inactive) |

Turning now to a further compound:
Given item `CNc1nc(N)c([N+](=O)[O-])c(Nc2ccccc2)n1` , the value recorded as its GFP ratio to DMSO is 0.808 (inactive)

---

Tested on: YPL131W
Assay: TOR pathway GFP reporter clone modulation in yeast – S. cerevisiae, GFP-tagged clone panel, flow cytometry (AID 504473);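 further: median GFP fluorescence of the cells measured by high-throughput flow cytometry; test concentration not given here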
Details: S. cerevisiae GFP-tagged strains, 3 h
GFP ratio to DMSO for assorted molecules
Reply with just the number.

Past entries and their recorded results:
| RECORD_SMILES | GFP ratio to DMSO |
| --- | --- |
| CNc1nc(N)c([N+](=O)[O-])c(Nc2ccccc2OC)n1 | 0.657 |
| CNc1nc(N)c([N+](=O)[O-])c(Nc2cccc(F)c2)n1 | 0.93 |
| CNc1nc(N)c([N+](=O)[O-])c(Nc2cccc(Cl)c2)n1 | 1.09 |

Given item `CO[C@H]1C[C@@H]2CC[C@@H](C)[C@@](O)(O2)C(=O)C(=O)N2CCCC[C@H]2C(=O)O[C@H]([C@H](C)C[C@@H]2CC[C@@H](O)[C@H](OC)C2)CC(=O)[C@H](C)/C=C(\C)[C@@H](O)[C@@H](OC)C(=O)[C@H](C)C[C@H](C)/C=C/C=C/C=C/1C` , the value recorded as its GFP ratio to DMSO is 0.781

Given item `CNc1nc(N)c([N+](=O)[O-])c(Nc2ccccc2)n1` , the value recorded as its GFP ratio to DMSO is 1.14
